# experiment: chemical genetic growth profiling, strain panel (AID 1159580);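 note: tested at 20 µM; growth read once vehicle control cultures reached saturation at 30 °C; 1 = growth at the plate median or of vehicle wells; lower values mean less growth of the strain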
# measurement_context: S. cerevisiae deletion strains, growth OD, locus YMR263W, strain SAP30, hits give low values
In all, about 5,500 compounds went through this assay and about 2,000 (36%) were called active. Roughly 18% stayed inconclusive and do not appear here. The list shows a part of the results.
Each entry below lists one item and its recorded normalized growth value.
Respond with the number and no other words.

compound=O=[N+]([O-])/N=C1/NCCN1Cc1ccc(Cl)cc1 property="normalized growth" quantitative_readout=1
compound=COC(=O)c1cc2c(cn1)[nH]c1ccccc12 property="normalized growth" quantitative_readout=1
compound=CC(=O)/C(=C\N(C)C)Sc1ccc(Cl)cc1 property="normalized growth" quantitative_readout=0.839
compound="C[C@]12C=CC(=O)C=C1CCC1C2C(=O)C[C@@]2(C)C1CC[C@]2(O)C(=O)CO (stereo partly drawn)" property="normalized growth" quantitative_readout=0.992
compound=O=S(=O)(O)c1cccc2cccc(Cl)c12 property="normalized growth" quantitative_readout=1.01
compound=CCC(=O)Oc1ccc(NC(=S)NCCCO)cc1 property="normalized growth" quantitative_readout=1.01
compound=CC1(C)S[C@@H]2[C@H](NC(=O)COc3ccccc3)C(=O)N2[C@H]1C(=O)O property="normalized growth" quantitative_readout=1
compound=CCCCC/C=C\C/C=C\C/C=C\C/C=C\CCCC(=O)O property="normalized growth" quantitative_readout=1

Q: Fill in: normalized growth of CC1(C)C[C@@H]2C(=O)CC[C@H]3O[C@]3(C)CC[C@H]21 is ___
Ans: 1.02

Q: Note, next up: O=C1OC(=O)C2C3CCC(O3)C12 (stereo not drawn)
Ans: 1.03

The reported numbers originate from PubChem BioAssay AID1159580.
